biological target: RORγ (Homo sapiens, UniProt P51449); construct: Jurkat pEx/Gal/hRORγ CLBD/HYG pG5luc/blast; test: RORγ Gal4 reporter assay (Gal4-luciferase reporter in Jurkat cells); details: inhibition of luminescence (inverse agonist activity); Jurkat cells stably over-expressing hRORγ; incubated overnight
Sequence (P51449 269-508 limits assumed): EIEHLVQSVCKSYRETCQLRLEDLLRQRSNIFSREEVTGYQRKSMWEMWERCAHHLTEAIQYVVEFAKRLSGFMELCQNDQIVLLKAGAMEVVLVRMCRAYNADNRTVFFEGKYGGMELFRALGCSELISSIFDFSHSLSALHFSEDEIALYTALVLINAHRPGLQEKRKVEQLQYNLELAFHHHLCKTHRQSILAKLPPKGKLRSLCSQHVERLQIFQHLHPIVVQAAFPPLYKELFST
Reported pIC50 values follow for various molecules
# pIC50 is unitless: minus log10 of the molar concentration; print number only

INSERT INTO assay_data (molecule, system_under_test, reported_metric, value) VALUES
  ('N#CC1(C(=O)N2CC[C@@]3(S(=O)(=O)c4ccc(F)cc4)c4ccc(C(F)(C(F)(F)F)C(F)(F)F)cc4CC[C@@H]23)CCS(=N)(=O)CC1 (some centres unmarked)', 'RORγ (Homo sapiens, UniProt P51449)', 'pIC50', 7.32),
  ('N=S1(=O)CCC(F)(C(=O)N2CC[C@@]3(S(=O)(=O)c4ccc(F)cc4)c4ccc(C(F)(C(F)(F)F)C(F)(F)F)cc4CC[C@@H]23)CC1 (single isomer, unassigned) [Example 18]', 'RORγ (Homo sapiens, UniProt P51449)', 'pIC50', 7.28),
  ('N=S1(=O)CCC(C(=O)N2CCC3(S(=O)(=O)c4ccc(F)cc4)c4ccc(C(F)(C(F)(F)F)C(F)(F)F)cc4NCC23)CC1 (single isomer, unassigned)', 'RORγ (Homo sapiens, UniProt P51449)', 'pIC50', 7.29),
  ('CC1(C(=O)N2CC[C@@]3(S(=O)(=O)c4ccc(F)cc4)c4ccc(C(F)(C(F)(F)F)C(F)(F)F)cc4CC[C@@H]23)CCS(=N)(=O)CC1 (some centres unmarked)', 'RORγ (Homo sapiens, UniProt P51449)', 'pIC50', 7.47),
  ('N=S1(=O)CCC(C(=O)N2CCC3(S(=O)(=O)c4ccc(Cl)cc4)c4ccc(C(F)(C(F)(F)F)C(F)(F)F)cc4CCC23)CC1 (single isomer, unassigned)', 'RORγ (Homo sapiens, UniProt P51449)', 'pIC50', 7.24),
  ('N=S1(=O)CCC(O)(C(=O)N2CC[C@@]3(S(=O)(=O)c4ccc(F)cc4)c4ccc(C(F)(C(F)(F)F)C(F)(F)F)cc4CC[C@@H]23)CC1 (mixture of isomers)', 'RORγ (Homo sapiens, UniProt P51449)', 'pIC50', 7.85),
  ('N=S1(=O)CCC(C(=O)N2CCC3(S(=O)(=O)c4cccc(F)c4)c4ccc(C(F)(C(F)(F)F)C(F)(F)F)cc4CCC23)CC1 (single isomer, unassigned)', 'RORγ (Homo sapiens, UniProt P51449)', 'pIC50', 7.40),
  ('N=S1(=O)CCC(C(=O)N2CC[C@@]3(S(=O)(=O)c4ccc(F)cc4)c4ccc(C(F)(C(F)(F)F)C(F)(F)F)cc4CC[C@@H]23)CC1 (single isomer, unassigned) [Example 12]', 'RORγ (Homo sapiens, UniProt P51449)', 'pIC50', 7.25);

Next:
State, in one line, measured pIC50 of N=S1(=O)CCC(F)(C(=O)N2CC[C@@]3(S(=O)(=O)c4ccc(F)cc4)c4ccc(C(F)(C(F)(F)F)C(F)(F)F)cc4CC[C@@H]23)CC1 (single isomer, unassigned) [Example 19]
7.22

Reference source: patent US10968177B2
